system: ragweed (common ragweed, Ambrosia elatior); experiment: Test B pre-/postemergence plant response; format: in vivo; conditions: Preemergence, 500 g ai/ha; 0 to 100 scale where 0 is no effect and 100 is complete control
RESULT_TYPE: Plant response rating, Ragweed

1) FC(F)(F)Cn1cnc(-c2ccccc2Oc2ncc(Cl)cn2)c1	0
2) Cn1nnc(-c2ccccc2Oc2ncc(Cl)cn2)n1	60
3) FC(F)(F)c1csc(-c2ccccc2Oc2ncc(Br)cn2)n1	0
4) Cc1cc(-c2ccccc2Oc2ncc(Cl)cn2)no1	50
5) Cc1cc(-c2ccccc2Oc2ncc(Cl)cn2)on1	80
6) FC(F)(F)c1cc(-c2c(Cl)cccc2Oc2ncc(Cl)cn2)no1	20
